# GI50 per entry
Test system: UO-31
Assay: NCI tumour cell line growth inhibition, 48 h
Active and inactive are the calls of the source. Cut-off read from the data, not from the text of the source: active = GI50 up to about 1.1 µM and inactive = higher.
PROPERTY_LABEL: GI50

[[record]]
molecule = "Cc1ccc(C(=O)N/N=C(\\N=N\\c2cccc(C)c2)c2ccc(N(CCC#N)CCC#N)cc2C)cc1"
result = "> 100 µM (inactive)"

[[record]]
molecule = "CCP(C)(=O)CC"
result = "> 100 µM (inactive)"

[[record]]
molecule = "C#CCOCn1cnc2c(N)ncnc21"
result = "> 100 µM (inactive)"

[[record]]
molecule = "CC(=O)OCC1OC(N2C(=O)/C(=C\\c3ccc(Cl)cc3)C(N)=Nc3ccccc32)C(OC(C)=O)C(OC(C)=O)C1OC(C)=O (stereo unspecified)"
result = "20.7 µM (inactive)"

[[record]]
molecule = "CCOC(=O)C(=CNC(=S)c1ccncc1)C(=O)OCC"
result = "> 100 µM (inactive)"

[[record]]
molecule = "C=CC[C@@]1([C@H](C=C)COCc2ccc(OC)cc2)CC[C@]2(C)OC(C)(C)[C@@H](c3ccccc3)N2C1=S"
result = "> 100 µM (inactive)"

[[record]]
molecule = "CC(C)=CC(Cc1ccccc1)S(=O)(=O)c1nc2ccccc2s1 (stereo unspecified)"
result = "13.8 µM (inactive)"

[[record]]
molecule = "O=C(/C=N/O)Nc1cccc(Cl)c1I"
result = "23.9 µM (inactive)"

[[record]]
molecule = "Cc1nc(C)c(N2CCNCC2)c(O)n1"
result = "> 100 µM (inactive)"

[[record]]
molecule = "O=C(O)C(CO)NC(=O)C1C(C(=O)O)C(c2ccccc2[N+](=O)[O-])C=C(c2ccco2)N1c1ccncc1 (stereo unspecified)"
result = "3.68 µM (inactive)"

[[record]]
molecule = "NC1=NN(c2ccccc2)C(=O)C1C(=O)CCC(=O)Nc1cccc(C(F)(F)F)c1 (stereo unspecified)"
result = "> 100 µM (inactive)"

